The measurements presented in this section are drawn from PubChem BioAssay (NCATS).

assay: NFAT Signaling Pathway (AID 444); details: Jurkat NFAT-bla M1, carbachol, beta-lactamase ratio, 5 h; at 17.2 µM (top of the series) unless noted;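 further: carbachol stimulus at about its EC50 of 1 µM final; on the % scale 0 is the no-effect control and ±100 the full control effect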
Inconclusive results are not listed. Activity calls are given as the source filed them. The call rests on the fitted dose curve; in most records, active means well fitted curve in either direction with a large enough effect (not every such curve was filed as active); inconclusive means small, poorly fitted or top-dose-only effect, or another doubt; inactive means flat fitted curve, though single readings scatter.
measurement-type: activity change, negative = inhibition

Query: Record request: activity change, negative = inhibition value, item "C=C1c2c(Cl)ccc(O)c2C(O)=C2C(=O)[C@@]3(O)C(O)=C(C(N)=O)C(=O)[C@@H](N(C)C)[C@@H]3[C@@H](O)[C@H]12"
Result: -26.3% (inactive)

Query: Record request: activity change, negative = inhibition value, item "C=C(C)[C@H]1CC[C@]2(C(=O)O)CC[C@]3(C)[C@@H](CC[C@H]4[C@@]5(C)CC[C@@H](O)C(C)(C)[C@@H]5CC[C@@]43C)[C@H]12"
Result: -3.55% (inactive)

Query: Record request: activity change, negative = inhibition value, item "O=C(/C=C\c1ccc(O)c(O)c1)O[C@@H]1C[C@](O)(C(=O)O)C[C@@H](O)[C@@H]1O"
Result: -0.271% (inactive)

Query: Record request: activity change, negative = inhibition value, item "CN[C@H]1[C@H](O)[C@@H](O[C@@H]2[C@H](O)[C@@H](O[C@H]3OC(CN)=CC[C@H]3N)[C@@H](N)C[C@H]2N)OC[C@@]1(C)O"
Result: -17.3% (inactive)

Query: Record request: activity change, negative = inhibition value, item "C[C@H](N[C@@H](C)COc1ccccc1)[C@H](O)c1ccc(O)cc1"
Result: -9.06% (inactive)

Query: Record request: activity change, negative = inhibition value, item "C[C@]12C=CC(=O)C=C1CC[C@@H]1[C@H]3C[C@@H](O)[C@](O)(C(=O)CO)[C@@]3(C)C[C@H](O)[C@]12F"
Result: 7.24% (inactive)

Query: Record request: activity change, negative = inhibition value, item "COCC(=O)Nc1c(I)c(C(=O)NC[C@@H](O)CO)c(I)c(C(=O)N(C)C[C@@H](O)CO)c1I"
Result: 3.09% (inactive)

----------
tested on: CP265; test: qHTS profiling for inhibitors of Plasmodium falciparum proliferation (AID 504749); further: nearly all actives have a fitted effect of over 60% in size; details: P. falciparum in erythrocytes, SYBR Green DNA, 72 h; series mostly up to 12.8 µM
Inconclusive results are not listed. Active and inactive are the calls of the source. Calls follow the shape of the dose curve; as a rule, active = well fitted inhibition curve with a large enough effect; inconclusive = small, poorly fitted or top-dose-only effect; inactive = flat fitted curve, though single readings scatter.
# valid calls are Yes (active), No (inactive); nothing else

Query: Returns: the outcome recorded for "CC[C@H]1NC(=O)c2cc(S(N)(=O)=O)c(Cl)cc2N1" in this assay.
Result: No

Query: Returns: the outcome recorded for "NC(=O)N[C@H]1NC(=O)NC1=O" in this assay.
Result: No

Query: Returns: the outcome recorded for CCOC(=O)C1=CC(OC(CC)CC)C(NC(C)=O)C(N)C1 (centres undefined) in this assay.
Result: No

Query: Returns: the outcome recorded for "O=C(NC[C@@H](O)CO)c1c(I)c(C(=O)NC[C@@H](O)CO)c(I)c(N(CCO)C(=O)CO)c1I" in this assay.
Result: No

Query: Returns: the outcome recorded for CCCCC[C@H](O)/C=C\[C@H]1[C@H](C/C=C\CCCC(=O)O)[C@@H](O)C[C@H]1O (tested in a mixture with another compound) in this assay.
Result: No

Query: Returns: the outcome recorded for "COc1cc(N)c(Cl)cc1C(=O)N[C@H]1CCN(CCCOc2ccc(F)cc2)C[C@H]1OC" in this assay.
Result: Yes

Query: Returns: the outcome recorded for "CC(=O)C[C@H](c1ccc([N+](=O)[O-])cc1)c1c(O)c2ccccc2oc1=O" in this assay.
Result: No

Query: Returns: the outcome recorded for "CO[C@H]1[C@@H](OC(N)=O)[C@H](O)[C@@H](Oc2ccc3c(O)c(NC(=O)c4ccc(O)c(CC=C(C)C)c4)c(=O)oc3c2C)OC1(C)C" in this assay.
Result: No

Query: Returns: the outcome recorded for CC[C@@]12CCCN3CCc4c(n(c5ccccc45)[C@](O)(C(=O)OC)C1)C32 (some centres undefined) in this assay.
Result: No
